Target: TTK (human)
Assay: radiometric filter-binding kinase assay
Conditions: compound 1.0 µM
assay.readout: residual activity (%)
Could you give me the number in %? Just the number is fine.

Prompt: Given NC(=O)c1ccc(-c2ccc(Oc3cncc4sc(-c5nn[nH]n5)cc34)cc2)cc1 , state its recorded residual activity.
Completion: 79

Prompt: Fill in: residual activity of O=C(O)c1ccc(-c2c[nH]c3ncc(-c4ccccc4)cc23)cc1C1CCCC1 is ___
Completion: 79

Prompt: For Cc1nc(-c2ccc(OCC(C)C)c(C#N)c2)sc1C(=O)O , what is its reported residual activity?
Completion: 89

Prompt: Consider the compound Cc1ccc(=O)n(-c2ccccc2)c1 and give its measured residual activity.
Completion: 73

Prompt: I'd like to know its residual activity. The compound in question is CC(C)(C#N)c1ccc(N2C(=O)OCc3cnc4ccc(-c5cnc6ccccc6c5)cc4c32)cc1
Completion: 91

Prompt: Given the entry CN(C)C/C=C/C(=O)Nc1cccc(C(=O)Nc2ccc(Nc3nccc(-c4cccnc4)n3)cc2)c1 , report its measured residual activity.
Completion: 77

Prompt: What measured residual activity goes with NCC(=O)Nc1ccc(-n2nc(C(F)(F)F)cc2-c2ccc3c(ccc4ccccc43)c2)cc1 ?
Completion: 90

Prompt: # residual activity lookup, item CNC(=O)C1[C@H]2O[C@@](C)([C@@H]1N)n1c3ccccc3c3c4c(c5c6ccccc6n2c5c31)C(=O)NC4 (stereo partly drawn)
Completion: 7

Prompt: # query: residual activity of entry COc1ccc(-n2ncc3cnc(Nc4cc(OC)c(OC)c(OCCCN5CCN(C)CC5)c4)nc32)cc1
Completion: 64

Prompt: # query: residual activity of entry O=C(NOC[C@H](O)CO)c1ccc(F)c(F)c1Nc1ccc(I)cc1Cl
Completion: 98

Prompt: If you can, please state the reported residual activity value of Oc1ccc2ccccc2c1SSc1c(O)ccc2ccccc12 .
Completion: 68

Prompt: Quick one: residual activity for COc1cc(C(=O)N2CCOCC2)c(F)cc1Nc1ncc(C(F)(F)F)c(NC2CC2)n1 ?
Completion: 56

Prompt: Would you kindly share the measured residual activity for O=C(Nc1ccccc1-c1cn2c(CN3CCNCC3)csc2n1)c1cnc2ccccc2n1 ?
Completion: 85

Taken from the kinase profiling compilation of Christmann-Franck et al. (2016).
